- experimental-target: KRAS G12D (Homo sapiens, UniProt P01116, G12D)
- Sequence (P01116 1-169 isoform P01116-2 G12D): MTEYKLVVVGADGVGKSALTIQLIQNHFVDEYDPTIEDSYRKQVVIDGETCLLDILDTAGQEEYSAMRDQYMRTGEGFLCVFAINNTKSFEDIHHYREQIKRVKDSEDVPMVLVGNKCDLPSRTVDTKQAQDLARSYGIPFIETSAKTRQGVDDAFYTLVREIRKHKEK
- experiment-summary: In-vitro RAS-RAF binding assay (RRB), HTRF/FRET
- Assay type: biochemical
- Set-up: Biotinylated KRAS protein amino acids 1-169 (produced at Erasca); made in house
- measurement-setup: Table 2, average of multiple runs of each compound; read-out: Inhibition of RAS-RAF Binding (in-vitro) KRAS (G12D) IC50
measurement-name: pIC50
FYI, pIC50 means -log10 of a concentration in mol per litre.

CC(C)[C@@H](C(=O)N1C[C@H](O)C[C@H]1C(=O)N[C@@H](C)c1ccc(-c2c(F)cc(F)cc2F)cc1)c1cc(OCC2(C)CCN(CCOc3nc(N4CC5CCC(C4)N5)c4cc(C(F)(F)F)c(-c5ccc(F)c6sc(N)c(C#N)c56)c(F)c4n3)CC2)no1 7.66

So what's the measured pIC50 for this one? `Cc1ncsc1-c1ccc([C@H](C)NC(=O)[C@@H]2C[C@@H](O)CN2C(=O)[C@@H](NC(=O)CCCCN2CC[C@H]2COc2nc(N3CC4CCC(C3)N4)c3cc(Cl)c(-c4ccc(F)c5sc(N)c(C#N)c45)c(F)c3n2)C(C)(C)C)cc1`
7.90

###

In this section we review reported DC50 values for a set of compounds.
- experimental-target: KRas G12D fused to HiBiT peptide (Homo sapiens, UniProt P01116, G12D)
- Construct: endogenous in cells; host or cells: AsPC-1 HiBiT knock-in single clone (Cas9 RNP + ssODN)
- Sequence (P01116 1-188 isoform P01116-2 G12D): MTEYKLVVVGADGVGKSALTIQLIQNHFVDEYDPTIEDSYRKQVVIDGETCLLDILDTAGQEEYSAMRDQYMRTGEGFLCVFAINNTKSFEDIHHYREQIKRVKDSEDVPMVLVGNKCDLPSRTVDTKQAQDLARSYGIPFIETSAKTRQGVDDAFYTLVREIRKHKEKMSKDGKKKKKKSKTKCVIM
- experiment-summary: ASPC-1 HiBit assay to determine G12D degradation
- Type: cell-based
- measurement-setup: AsPC-1 HiBiT cells, 24-hour incubation; read-out: ASPC-1 HiBit DC50 (C)
Record the value in nM, omitting the unit from your answer.

Solved cases (3 shown):
CC(C)[C@@H](C(=O)N1C[C@H](O)C[C@H]1C(=O)N[C@@H](C)c1ccc(-c2c(F)cc(F)cc2F)cc1)c1cc(OCC2(C)CCN(CCOc3nc(N4CC5CCC(C4)N5)c4cc(C(F)(F)F)c(-c5ccc(F)c6sc(N)c(C#N)c56)c(F)c4n3)CC2)no1 259
CC(C)[C@@H](C(=O)N1C[C@H](O)C[C@H]1C(=O)N[C@@H](C)c1ccc(-c2c(F)cccc2F)cc1)c1cc(OCC2(F)CCN(CCOc3nc(N4CC5CCC(C4)N5)c4cc(Cl)c(-c5ccc(F)c6sc(N)c(C#N)c56)c(F)c4n3)CC2)no1 349
C[C@H](NC(=O)[C@@H]1C[C@@H](O)CN1C(=O)[C@@H](NC(=O)CCOCCCN1CCC[C@H]1COc1nc(N2CC3CCC(C2)N3)c2cc(C(F)(F)F)c(-c3ccc(F)c4sc(N)c(C#N)c34)c(F)c2n1)C(C)(C)C)c1ccc(-c2c(F)cc(F)cc2F)cc1 49

So what's the measured DC50 for this one? `C[C@H](NC(=O)[C@@H]1C[C@@H](O)CN1C(=O)[C@@H](NC(=O)CCOCCCN1CCC[C@H]1COc1nc(N2CC3CCC(C2)N3)c2cc(Cl)c(-c3ccc(F)c4sc(N)c(C#N)c34)c(F)c2n1)C(C)(C)C)c1ccc(-c2ccccc2Cl)cc1`
75

###

- experimental-target: KRAS G12D (Homo sapiens, UniProt P01116, G12D)
- experiment-summary: In-vitro RAS-RAF binding assay (RRB), HTRF/FRET
- Assay type: biochemical
- Design: Biotinylated KRAS protein amino acids 1-169 (produced at Erasca); made in house
- measurement-setup: Table 2, average of multiple runs of each compound; read-out: Inhibition of RAS-RAF Binding (in-vitro) KRAS (G12D) IC50
- Protocol: Biotinylated KRAS protein amino acids 1-169 (produced at […]) is labeled with streptavidin-terbium (lanthanide cryptate donor fluorophore) in assay buffer (50 mM HEPES, pH 7.5, 100 mM NaCl, 1 mM MgCl2, 1 mM DTT) at a final concentration of 30 nM. […] A portion of this mixture is transferred to a white 384-well plate (20 uL per well in duplicate) and read on an HTRF compatible plate reader (ClarioSTAR). Fluorescent resonance energy transfer (FRET) is measured at equilibrium. […]
measurement-name: IC50 (nM)
Record the value in nM, omitting the unit from your answer.

compound	measured-value
Cc1ncsc1-c1ccc([C@H](C)NC(=O)[C@@H]2C[C@@H](O)CN2C(=O)[C@@H](NC(=O)CCCCN2CCC[C@H]2COc2nc(N3CC4CCC(C3)N4)c3cc(C(F)(F)F)c(-c4ccc(F)c5sc(N)c(C#N)c45)c(F)c3n2)C(C)(C)C)cc1	13
C#Cc1c(F)ccc2cc(O)cc(-c3ncc4c(N5CC6CCC(C5)N6)nc(OC[C@@H]5CCCN5CCCOCCC(=O)N[C@H](C(=O)N5C[C@H](O)C[C@H]5C(=O)N[C@@H](C)c5ccc(-c6c(C)ccc(C)c6C)cc5)C(C)(C)C)nc4c3F)c12	9.36
CC(C)[C@@H](C(=O)N1C[C@H](O)C[C@H]1C(=O)N[C@@H](C)c1ccc(-c2c(F)cc(F)cc2F)cc1)c1cc(OCC2CCN(CCOc3nc(N4CC5CCC(C4)N5)c4cc(C(F)(F)F)c(-c5ccc(F)c6sc(N)c(C#N)c56)c(F)c4n3)CC2)no1	25.5
CC(C)[C@@H](C(=O)N1C[C@H](O)C[C@H]1C(=O)N[C@@H](C)c1ccc(-c2c(F)cccc2F)cc1)c1cc(OCC2(C)CCN(CCOc3nc(N4CC5CCC(C4)N5)c4cc(Cl)c(-c5ccc(F)c6sc(N)c(C#N)c56)c(F)c4n3)CC2)no1	19.8
C#Cc1c(F)ccc2cc(O)cc(-c3ncc4c(N5CC6CCC(C5)N6)nc(OC[C@@H]5CCCN5CCCC5CCC(=O)N5[C@H](C(=O)N5C[C@H](O)C[C@H]5C(=O)N[C@@H](C)c5ccc(-c6scnc6C)cc5)C(C)(C)C)nc4c3F)c12 (some centres unmarked)	12.7

So what's the measured IC50 for this one? `Cc1cc(N)nc(-c2c(Cl)cc3c(N4CC5CCC(C4)N5)nc(OC[C@@H]4CCCN4CCCOCCC(=O)N[C@H](C(=O)N4C[C@H](O)C[C@H]4C(=O)NCc4ccc(-c5scnc5C)cc4)C(C)(C)C)nc3c2F)c1C(F)(F)F`
17.2

So what's the measured IC50 for this one? C[C@H](NC(=O)[C@@H]1C[C@@H](O)CN1C(=O)[C@@H](NC(=O)CCOCCCN1CCC[C@H]1COc1nc(N2CC3CCC(C2)N3)c2cc(Cl)c(-c3ccc(F)c4sc(N)c(C#N)c34)c(F)c2n1)C(C)(C)C)c1ccc(-c2ccccc2Cl)cc1 [Example 96]
9.2

So what's the measured IC50 for this one? `Cc1ncsc1-c1ccc([C@H](C)NC(=O)[C@@H]2C[C@@H](O)CN2C(=O)[C@@H](NC(=O)CCOCCCN2CCC[C@H]2COc2nc(N3CC4CCC(C3)N4)c3cc(C(F)(F)F)c(-c4ccc(F)c5sc(N)c(C#N)c45)c(F)c3n2)C(C)(C)C)cc1`
8.2

Source listed as patent US20240293558A1.
